Measured clearance of individual entries
# Method description: Clearance in iv dosed rat
# Details: in vivo
# output: bare number, implied unit mL/min/kg

Sample records with clearance:
> print(dat)
                                chem.smiles  measured.endpoint  readout.units  endpoint.result
1  O=c1[nH]c2c(O)ccc(CCNCCc3cccc(-c4cccc(CNCc5ccccc5)c4)c3)c2s1          clearance      mL/min/kg               23
2  COc1ccccc1CNCc1cccc(CCNC[C@H](O)c2ccc(O)c3[nH]c(=O)sc23)c1          clearance      mL/min/kg               20
3  O=c1[nH]c2c(O)ccc([C@@H](O)CNCCc3cccc(CNCCc4ccccc4F)c3)c2s1          clearance      mL/min/kg                6

COCCNCc1cccc(CCNC[C@H](O)c2ccc(O)c3[nH]c(=O)sc23)c1 yielded clearance of 18

Cc1cccc2c(CCNCc3ccc(CCNC[C@H](O)c4ccc(O)c5[nH]c(=O)sc45)cc3)c[nH]c12 yielded clearance of 18

C[C@@H](NCc1ccccc1-c1ccc(CCNCCc2ccc(O)c3[nH]c(=O)sc23)cc1)c1ccccc1 yielded clearance of 19

----------
# Method description: in vivo
# Details: rat, iv
# Description: Terminal half life in iv dosed rat
Measured endpoint: half-life (h)
# output: bare number, implied unit h

Sample records with half-life:
> print(dat)
                                   molecule  endpoint.result
1  Cc1cccc2c(CCNCc3ccc(CCNC[C@H](O)c4ccc(O)c5[nH]c(=O)sc45)cc3)c[nH]c12               18
2  COc1ccccc1CNCc1cccc(CCNC[C@H](O)c2ccc(O)c3[nH]c(=O)sc23)c1               14
3  C[C@@H](NCc1ccccc1-c1ccc(CCNCCc2ccc(O)c3[nH]c(=O)sc23)cc1)c1ccccc1               15
4  O=c1[nH]c2c(O)ccc([C@@H](O)CNCCc3cccc(CNCCc4ccccc4F)c3)c2s1               16
5  CCc1cc2c(cc1CC)CC(NC[C@H](O)c1ccc(O)c3[nH]c(=O)ccc13)C2 [INDACATEROL]              7.6
6  COCCNCc1cccc(CCNC[C@H](O)c2ccc(O)c3[nH]c(=O)sc23)c1               18

Next molecule, please.
O=c1[nH]c2c(O)ccc(CCNCCc3cccc(-c4cccc(CNCc5ccccc5)c4)c3)c2s1 yielded half-life of 14

----------
# Target desc: Beta-2 adrenergic receptor (Cavia porcellus) (UniProt Q8K4Z4)
# Sequence (Q8K4Z4 whole entry, looked up): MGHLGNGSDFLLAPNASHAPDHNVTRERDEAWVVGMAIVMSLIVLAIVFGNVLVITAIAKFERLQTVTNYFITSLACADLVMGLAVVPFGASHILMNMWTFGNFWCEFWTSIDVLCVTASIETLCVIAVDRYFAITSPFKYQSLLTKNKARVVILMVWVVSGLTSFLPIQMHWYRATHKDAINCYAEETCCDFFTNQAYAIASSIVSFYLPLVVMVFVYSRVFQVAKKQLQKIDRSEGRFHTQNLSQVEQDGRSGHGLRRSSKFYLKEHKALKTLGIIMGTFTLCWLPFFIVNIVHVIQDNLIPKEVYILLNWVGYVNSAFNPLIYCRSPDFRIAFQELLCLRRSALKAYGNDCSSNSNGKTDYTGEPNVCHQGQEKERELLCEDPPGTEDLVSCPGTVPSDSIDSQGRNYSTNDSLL
# Method description: Agonist activity at beta2 adrenoceptor in guinea pig trachea assessed as reduction in methacholine-induced contraction relative to untreated control
# Type: functional, tissue-based
Measured endpoint: Intrinsic activity
Give your answer as a number; write no unit.

> print(dat)
                                chem.smiles  endpoint.result
1  Cc1cccc2c(CCNCc3ccc(CCNC[C@H](O)c4ccc(O)c5[nH]c(=O)sc45)cc3)c[nH]c12              0.8
2  COc1ccccc1CNCc1cccc(CCNC[C@H](O)c2ccc(O)c3[nH]c(=O)sc23)c1              0.9
3  O=c1[nH]c2c(O)ccc([C@@H](O)CNCCc3cccc(CNCCc4ccccc4F)c3)c2s1              0.9
4  O=c1[nH]c2c(O)ccc(CCNCCc3cccc(-c4cccc(CNCc5ccccc5)c4)c3)c2s1              0.9
5  COCCNCc1cccc(CCNC[C@H](O)c2ccc(O)c3[nH]c(=O)sc23)c1              0.8

C[C@@H](NCc1ccccc1-c1ccc(CCNCCc2ccc(O)c3[nH]c(=O)sc23)cc1)c1ccccc1 yielded Intrinsic activity of 0.9

O=c1[nH]c2c(O)ccc([C@@H](O)CNCCc3cccc(CNCCc4ccccn4)c3)c2s1 yielded Intrinsic activity of 0.9

----------
# Target desc: D(2) dopamine receptor (Homo sapiens, UniProt P14416)
# Sequence (P14416 whole entry): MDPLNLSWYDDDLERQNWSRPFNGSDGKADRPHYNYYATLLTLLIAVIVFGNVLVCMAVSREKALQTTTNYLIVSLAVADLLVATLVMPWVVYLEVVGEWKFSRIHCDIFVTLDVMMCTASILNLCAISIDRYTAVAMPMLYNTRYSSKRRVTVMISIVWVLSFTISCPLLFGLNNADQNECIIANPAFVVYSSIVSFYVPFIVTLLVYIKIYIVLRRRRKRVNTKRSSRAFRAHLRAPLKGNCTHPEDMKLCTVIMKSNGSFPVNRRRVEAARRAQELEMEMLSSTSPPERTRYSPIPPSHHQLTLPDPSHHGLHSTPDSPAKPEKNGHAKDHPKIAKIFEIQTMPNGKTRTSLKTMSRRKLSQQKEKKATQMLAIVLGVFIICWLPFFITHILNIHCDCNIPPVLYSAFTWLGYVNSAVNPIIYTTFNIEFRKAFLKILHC
# Method description: […] to dopamine D2 receptor expressed in HEK cells by GTPgammaS binding assay
Measured endpoint: EC50 (µM)
# output: bare number, implied unit µM

COc1ccccc1CNCc1cccc(CCNC[C@H](O)c2ccc(O)c3[nH]c(=O)sc23)c1 yielded EC50 of 0.251

----------
# Method description: Oral bioavailability in rat
# Type: ADME, organism-based
# Details: in vivo
Measured endpoint: bioavailability

COc1ccccc1CNCc1cccc(CCNC[C@H](O)c2ccc(O)c3[nH]c(=O)sc23)c1 yielded bioavailability of < 2%

----------
Measured logD of individual entries
# Method description: physchem
# Details: 1-octanol/aqueous buffer, pH 7.4
Give your answer as a number; write no unit.

Sample records with logD:
> print(dat)
                                   compound  endpoint.result
1  O=c1[nH]c2c(O)ccc([C@@H](O)CNCCc3ccccc3CNCCc3ccccc3F)c2s1              1.6
2  O=c1[nH]c2c(O)ccc([C@@H](O)CNCCc3cccc(CNCc4ccccc4F)c3)c2s1              0.7
3  COc1ccccc1CNCc1cccc(CCNC[C@H](O)c2ccc(O)c3[nH]c(=O)sc23)c1              1.1

Next compound, please.
O=c1[nH]c2c(O)ccc([C@@H](O)CNCCc3cccc(CNCc4ccccc4Cl)c3)c2s1 yielded logD of 1.9

----------
Measured IC50 of individual entries
# Target desc: Beta-1 adrenergic receptor (Homo sapiens, UniProt P08588)
# Sequence (P08588 whole entry): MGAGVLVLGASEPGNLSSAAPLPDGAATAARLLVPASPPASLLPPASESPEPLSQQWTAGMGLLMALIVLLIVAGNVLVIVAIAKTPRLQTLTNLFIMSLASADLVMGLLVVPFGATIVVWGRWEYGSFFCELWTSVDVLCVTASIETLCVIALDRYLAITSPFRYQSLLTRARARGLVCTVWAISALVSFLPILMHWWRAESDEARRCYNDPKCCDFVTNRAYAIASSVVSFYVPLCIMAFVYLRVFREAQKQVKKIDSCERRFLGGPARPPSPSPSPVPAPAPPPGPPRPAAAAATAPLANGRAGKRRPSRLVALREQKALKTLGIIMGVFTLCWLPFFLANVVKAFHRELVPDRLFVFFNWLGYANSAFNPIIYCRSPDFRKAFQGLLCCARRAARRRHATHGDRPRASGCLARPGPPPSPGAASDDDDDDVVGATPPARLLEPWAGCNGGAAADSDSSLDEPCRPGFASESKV
# Method description: Displacement of radiolabeled iodocyanopindolol from beta1 adrenoceptor
# output: bare number, implied unit nM

> print(dat)
                                chem.smiles  measured.endpoint  endpoint.result
1  O=c1[nH]c2c(O)ccc([C@@H](O)CNCCc3cccc(CNCCCc4ccccc4)c3)c2s1               IC50               20
2  COc1ccc(CNCc2cccc(CCNC[C@H](O)c3ccc(O)c4[nH]c(=O)sc34)c2)cc1               IC50               10
3  O=c1[nH]c2c(O)ccc([C@@H](O)CNCCCc3cccc(CNCCc4c(Cl)cccc4Cl)c3)c2s1               IC50             7.94

O=c1[nH]c2c(O)ccc([C@@H](O)CNCCc3cccc(CNCc4ccccc4F)c3)c2s1 yielded IC50 of 6.31

O=c1[nH]c2c(O)ccc([C@@H](O)CNCCc3cccc(CNCc4ccccn4)c3)c2s1 yielded IC50 of 79.4

----------
# collection of pIC50 values tested on Alpha-1D adrenergic receptor (Homo sapiens, UniProt P25100)
# Sequence (P25100 whole entry): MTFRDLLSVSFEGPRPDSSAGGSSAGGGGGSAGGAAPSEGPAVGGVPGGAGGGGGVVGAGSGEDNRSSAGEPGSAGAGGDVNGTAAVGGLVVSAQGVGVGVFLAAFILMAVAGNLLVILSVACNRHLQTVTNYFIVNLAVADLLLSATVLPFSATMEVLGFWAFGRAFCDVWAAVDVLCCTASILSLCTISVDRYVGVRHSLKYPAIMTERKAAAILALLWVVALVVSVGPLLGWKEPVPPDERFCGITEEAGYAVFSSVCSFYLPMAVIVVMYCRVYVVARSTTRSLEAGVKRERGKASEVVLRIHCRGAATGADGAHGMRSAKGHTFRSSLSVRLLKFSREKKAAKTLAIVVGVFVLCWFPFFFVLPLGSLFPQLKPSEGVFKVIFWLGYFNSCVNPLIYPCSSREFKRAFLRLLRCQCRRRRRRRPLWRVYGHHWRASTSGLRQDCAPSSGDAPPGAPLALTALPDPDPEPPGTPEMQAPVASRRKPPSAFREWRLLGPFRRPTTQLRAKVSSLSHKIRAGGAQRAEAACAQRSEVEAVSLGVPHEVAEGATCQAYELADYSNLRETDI
Units for pIC50: none; it is -log10 of a concentration expressed in mol/L.

> print(dat)
                                   compound  endpoint.result
1  O=c1[nH]c2c(O)ccc([C@@H](O)CNCCc3ccc(CNCCc4ccccn4)cc3)c2s1             7.60
2  O=c1[nH]c2c(O)ccc([C@@H](O)CNCCc3cccc(CN4CCCC4)c3)c2s1             6.00
3  COc1ccccc1CNCc1ccc(CCNC[C@H](O)c2ccc(O)c3[nH]c(=O)sc23)cc1             7.00
4  CC(CNCc1ccc(CCNC[C@H](O)c2ccc(O)c3[nH]c(=O)sc23)cc1)c1ccccc1 (stereo partly drawn)             7.50

Next compound, please.
Item: CCOc1ccccc1CNCc1cccc(CCNC[C@H](O)c2ccc(O)c3[nH]c(=O)sc23)c1 | System: Alpha-1D adrenergic receptor (Homo sapiens, UniProt P25100) | pIC50: 7.50

----------
Measured pIC50 of individual entries
# Target desc: UniProtKB P07550
# Sequence (P07550 whole entry): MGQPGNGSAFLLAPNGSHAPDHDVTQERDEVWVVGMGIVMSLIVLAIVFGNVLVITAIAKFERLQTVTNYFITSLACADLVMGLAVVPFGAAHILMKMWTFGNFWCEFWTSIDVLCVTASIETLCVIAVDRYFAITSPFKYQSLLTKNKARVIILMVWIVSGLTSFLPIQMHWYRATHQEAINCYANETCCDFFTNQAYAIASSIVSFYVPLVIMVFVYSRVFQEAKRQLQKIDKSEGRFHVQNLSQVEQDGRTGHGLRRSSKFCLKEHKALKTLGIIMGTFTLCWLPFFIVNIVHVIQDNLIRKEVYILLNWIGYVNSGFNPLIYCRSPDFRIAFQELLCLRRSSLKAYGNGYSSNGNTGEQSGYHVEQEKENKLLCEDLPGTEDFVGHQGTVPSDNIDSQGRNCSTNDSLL
# Method description: Displacement of radiolabeled iodocyanopindolol from recombinant beta2 adrenoceptor
Units for pIC50: none; it is -log10 of a concentration expressed in mol/L.

Sample records with pIC50:
> print(dat)
                                   compound  endpoint.result
1  CC(CNCc1ccc(CCNC[C@H](O)c2ccc(O)c3[nH]c(=O)sc23)cc1)c1ccccc1 (some centres undefined)             9.70
2  O=c1[nH]c2c(O)ccc([C@@H](O)CNCCc3cccc(CN4CCC(c5ccccc5)CC4)c3)c2s1             8.40
3  O=c1[nH]c2c(O)ccc(CCNCCc3cccc(-c4cccc(CNCc5ccccc5)c4)c3)c2s1             7.50
4  C[C@@H](NCc1ccccc1-c1ccc(CCNCCc2ccc(O)c3[nH]c(=O)sc23)cc1)c1ccccc1             9.10
5  O=c1[nH]c2c(O)ccc([C@@H](O)CNCCOc3cccc(CNCCc4ccccc4F)c3)c2s1             8.10
6  O=c1[nH]c2c(O)ccc([C@@H](O)CNCCc3cccc(CNCc4ccccc4F)c3)c2s1             9.00

COCCNCc1ccc(CCNC[C@H](O)c2ccc(O)c3[nH]c(=O)sc23)cc1 yielded pIC50 of 6.50

COc1ccc(CNCc2cccc(CCNC[C@H](O)c3ccc(O)c4[nH]c(=O)sc34)c2)cc1 yielded pIC50 of 8.30

O=c1[nH]c2c(O)ccc([C@@H](O)CNCCc3ccc(CNCCc4ccccc4)cc3)c2s1 yielded pIC50 of 8.70
